test system: HeLa Kyoto; test: thermal stability score vs G1/S (z-score of summed log2 fold changes over temperatures); higher = more thermally stable than in G1/S; conditions: cell cycle stage: mitosis;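 note: synchronized HeLa Kyoto cells, proteins quantified by TMT10plex mass spectrometry, three biological replicates, mitosis taken 0.5 h after nocodazole release, G1/S directly after double thymidine block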
# thermal stability score per record follows

CONSTRUCT SEQUENCE	thermal stability score
MDGDGDPESVGQPEEASPEEQPEEASAEEERPEDQQEEEAAAAAAYLDELPEPLLLRVLAALPAAELVQACRLVCLRWKELVDGAPLWLLKCQQEGLVPEGGVEEERDHWQQFYFLSKRRRNLLRNPCGEEDLEGWCDVEHGGDGWRVEELPGDSGVEFTHDESVKKYFASSFEWCRKAQVIDLQAEGYWEELLDTTQPAIVVKDWYSGRSDAGCLYELTVKLLSEHENVLAEFSSGQVAVPQDSDGGGWMEISHTFTDYGPGVRFVRFEHGGQDSVYWKGWFGARVTNSSVWVEP [FBXO2]	-0.484
MNIRNARPEDLMNMQHCNLLCLPENYQMKYYFYHGLSWPQLSYIAEDENGKIVGYVLAKMEEDPDDVPHGHITSLAVKRSHRRLGLAQKLMDQASRAMIENFNAKYVSLHVRKSNRAALHLYSNTLNFQISEVEPKYYADGEDAYAMKRDLTQMADELRRHLELKEKGRHVVLGAIENKVESKGNSPPSSGEACREEKGLAAEDSGGDSKDLSEVSETTESTDVKDSSEASDSAS [NAA10]	-1.02
